Target: c-Abl kinase (Abelson murine leukemia virus, UniProt P00521)
Sequence (P00521 115-385): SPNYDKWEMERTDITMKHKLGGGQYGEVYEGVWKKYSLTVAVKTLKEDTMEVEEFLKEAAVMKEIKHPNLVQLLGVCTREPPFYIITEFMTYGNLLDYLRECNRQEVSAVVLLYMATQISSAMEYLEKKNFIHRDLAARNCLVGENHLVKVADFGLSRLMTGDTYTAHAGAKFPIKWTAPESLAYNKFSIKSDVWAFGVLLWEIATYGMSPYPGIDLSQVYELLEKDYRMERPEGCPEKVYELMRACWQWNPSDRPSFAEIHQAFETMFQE
# IC50 binned as low = under 20 nM, mid = from 20 nM up to 200 nM, high = 200 nM and over

-- ask Which class holds CN1CCN(c2ccc3c(c2)Cc2c-3n[nH]c2Nc2cccc(Cl)c2)CC1 ?
-- reply high

-- ask Which class holds COc1cc2c(cc1OCC(O)CO)Cc1c-2n[nH]c1Nc1cccnc1 (stereo not shown) ?
-- reply high

-- ask Which class holds COc1cc(Nc2[nH]nc3c2Cc2cc(OC)c(OC)cc2-3)cc(OC)c1 ?
-- reply mid

-- ask Which class holds OCCCOc1cc2c(cc1OCCCO)-c1n[nH]c(Nc3ccc(F)c(Cl)c3)c1C2 ?
-- reply low

-- ask Which class holds Fc1cccc(Nc2[nH]nc3c2Cc2ccccc2-3)c1 ?
-- reply high

====

Molecular target: PDGF-receptor beta enzyme comprising the tyrosine kinase domain (Homo sapiens, UniProt P09619)
Construct: from amino acid 545 to 1106 of GenBank Access NO: AAA36427
Sequence (P09619 545-1106): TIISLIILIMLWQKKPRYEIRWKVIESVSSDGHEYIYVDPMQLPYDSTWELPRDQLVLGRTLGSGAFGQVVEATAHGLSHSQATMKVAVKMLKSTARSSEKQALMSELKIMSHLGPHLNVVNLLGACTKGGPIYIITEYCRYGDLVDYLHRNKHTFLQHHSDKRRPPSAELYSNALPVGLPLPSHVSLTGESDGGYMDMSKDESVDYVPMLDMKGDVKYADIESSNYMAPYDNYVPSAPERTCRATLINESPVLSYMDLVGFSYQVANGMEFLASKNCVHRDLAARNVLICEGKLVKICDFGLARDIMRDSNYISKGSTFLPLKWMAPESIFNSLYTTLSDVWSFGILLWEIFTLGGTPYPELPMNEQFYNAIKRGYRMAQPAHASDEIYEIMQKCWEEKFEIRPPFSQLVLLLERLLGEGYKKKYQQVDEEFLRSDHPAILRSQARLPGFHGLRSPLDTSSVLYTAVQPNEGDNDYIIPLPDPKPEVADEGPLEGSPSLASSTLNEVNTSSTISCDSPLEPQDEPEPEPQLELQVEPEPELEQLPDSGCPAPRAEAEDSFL
Assay: Inhibition of PDGF-receptor kinase activity (cell-free, PLC1 peptide, 33P Flashplate)
Assay type: biochemical
Settings: PDGF-R kinase activity; compound at 10 uM; read-out: Percent Inhibition @ 10 uM
Can you tell me inhibition at 10 µM for the items I'm about to list?
Numbers only, in %.

Known inhibition at 10 µM results, listed for orientation:
COc1cc2c(cc1OC)C(C)c1c-2n[nH]c1Nc1ccccc1 (stereo not drawn) ... 96
OCCCOc1cc2c(cc1OCCCO)-c1n[nH]c(Nc3cccc(Cl)c3)c1C2 ... 100
Fc1ccc2c(c1)Cc1c-2n[nH]c1Nc1cc(F)ccc1F ... 82
COc1cc2c(cc1OCC(O)CO)Cc1c-2n[nH]c1Nc1cccnc1 (stereo not drawn) ... 103
Brc1ccc2c(c1)Cc1c-2n[nH]c1Nc1cccnc1 ... 80

Return reported inhibition at 10 µM values for all items listed beneath this line.
1. CN(C)CCCOc1ccc2c(c1)Cc1c-2n[nH]c1Nc1cccc(F)c1
2. Cc1cccc2c1Cc1c-2n[nH]c1Nc1ccc(C(F)(F)F)cc1

-- reply
94.5
69

Return reported inhibition at 10 µM values for all items listed beneath this line.
1. CCC1c2cc(OC)c(OC)cc2-c2n[nH]c(Nc3cccc(Cl)c3)c21 (stereo not drawn)
2. c1cncc(Nc2[nH]nc3c2Cc2sccc2-3)c1

-- reply
1: 100; 2: 90

====

Target: c-Abl kinase (Abelson murine leukemia virus, UniProt P00521)
One threshold, 400 nM, splits the recorded IC50 values: lower ones are Condition met, equal or higher ones are Condition not met.

COCCCOc1ccc2c(c1)Cc1c-2n[nH]c1Nc1ccccc1 ... Condition not met
COCCCOc1cc2c(cc1OCCCOC)-c1n[nH]c(Nc3cccc(F)c3)c1C2 ... Condition met
COc1cccc2c1Cc1c-2n[nH]c1Nc1cccc(F)c1 ... Condition not met

-- ask Hi there! Is IC50 for Clc1ccc2c(c1)Cc1c-2n[nH]c1Nc1cccnc1 below 400 nM, do you know?
-- reply Condition not met

-- ask Hi there! Is IC50 for OCCCOc1cc2c(cc1OCCCO)-c1n[nH]c(Nc3cccc(Cl)c3)c1C2 below 400 nM, do you know?
-- reply Condition met

====

Target: PDGF-receptor beta enzyme comprising the tyrosine kinase domain (Homo sapiens)
Construct: from amino acid 545 to 1106 of GenBank Access NO: AAA36427
Test: Inhibition of PDGF-receptor kinase activity (cell-free, PLC1 peptide, 33P Flashplate)
Format: biochemical
Conditions: PDGF-R kinase activity; read-out: IC50
observable: log10(IC50) (log10 of the value in nM)
Transform log10 | Measure IC50 | Unit nM

Known log10(IC50) results, listed for orientation:
O=C1c2ccccc2-c2n[nH]c(Nc3ccccc3)c21 ... 3.31
COc1cc2c(cc1OC)-c1n[nH]c(Nc3ccc(C)cc3)c1C2 ... 3.15
COc1cc2c(cc1OC)-c1nn(C(=O)NCCN3CCOCC3)c(Nc3cccc(F)c3)c1C2 ... 2.90
COc1cc2c(cc1OC)-c1n[nH]c(NCc3ccccc3)c1C2 ... 2.28
Cc1cccc2c1Cc1c-2n[nH]c1Nc1cccc(F)c1 ... 3.17

Return reported log10(IC50) values for all items listed beneath this line.
1. CCOC(=O)CNC(=O)n1nc2c(c1Nc1cccc(F)c1)Cc1cc(OC)c(OC)cc1-2
2. COc1ccc(Nc2[nH]nc3c2Cc2cc(Cl)ccc2-3)cc1

-- reply
1: 3.99; 2: 2.30

Return reported log10(IC50) values for all items listed beneath this line.
1. COc1cc2c(cc1OC)-c1n[nH]c(NCc3ccccc3C)c1C2
2. N#Cc1ccc2c(c1)CCc1c-2n[nH]c1Nc1ccccc1
3. COc1cc2c(cc1OCCCN1CCOCC1)Cc1c-2n[nH]c1Nc1cccc(Br)c1
4. CCOc1cc2c(cc1OCCCO)-c1n[nH]c(Nc3cccc(OC)c3)c1C2
5. COc1ccc2c(c1)-c1n[nH]c(Nc3cc(F)ccc3F)c1C2
6. COc1cc2c(c(N)c1OC)Cc1c-2n[nH]c1Nc1cccc(F)c1
7. COc1ccc(OC)c(Nc2[nH]nc3c2Cc2ccccc2-3)c1

-- reply
1.66
2.81
0.33
1.08
2.50
1.08
1.61

Return reported log10(IC50) values for all items listed beneath this line.
1. COc1cc2c(cc1OC)-c1n[nH]c(Nc3cc(F)ccc3F)c1C2
2. COc1cc2c(cc1OC)-c1n[nH]c(NCc3ccc(C)c(C)c3)c1C2
3. COc1cc2c(cc1OC)-c1c(c(Nc3cccc(F)c3)nn1C(=O)NCCN1CCCC1)C2
4. COc1cc2c(cc1OC)-c1c(c(Nc3cccc(F)c3)nn1C(=O)c1ccccc1F)C2

-- reply
1. 2.80
2. 3.29
3. 1.81
4. 3.58

====

Can you tell me pIC50 for the items I'm about to list?
Biological target: PDGF-receptor beta enzyme comprising the tyrosine kinase domain (Homo sapiens)
Construct: from amino acid 545 to 1106 of GenBank Access NO: AAA36427
Experiment: Inhibition of PDGF-receptor kinase activity (cell-free, PLC1 peptide, 33P Flashplate)
Assay type: biochemical
Conditions: PDGF-R kinase activity; read-out: IC50
Give bare numbers, as −log10 of the molar value.

Known pIC50 results, listed for orientation:
Cc1cccc2c1Cc1c-2n[nH]c1Nc1cccnc1 ... 5.76
c1ccc(Nc2[nH]nc3c2Cc2sccc2-3)cc1 ... 6.38

Return reported pIC50 values for all items listed beneath this line.
1. CCOc1cc2c(cc1OCC)-c1n[nH]c(Nc3ccc(F)c(Cl)c3)c1C2
2. CNCCNC(=O)n1nc(Nc2cccc(F)c2)c2c1-c1cc(OC)c(OC)cc1C2

-- reply
7.92
5.61

====

Target: PDGF-receptor beta enzyme comprising the tyrosine kinase domain (Homo sapiens, UniProt P09619)
Construct: from amino acid 545 to 1106 of GenBank Access NO: AAA36427
Experiment: Inhibition of PDGF-receptor kinase activity (cell-free, PLC1 peptide, 33P Flashplate)
Format: biochemical
Conditions: PDGF-R kinase activity; compound at 10 uM; read-out: Percent Inhibition @ 10 uM
Give yes (1) when the value for inhibition at 10 µM is at least 80%. Give no (0) when it is less.

Check out these entries, answers already filled in.
c1ccc(Nc2[nH]nc3c2Cc2sccc2-3)cc1 [Compound 94] ... yes (1)
COc1ccc(Nc2[nH]nc3c2Cc2cc(OC)c(OC)cc2-3)cc1OC [Compound 49] ... no (0)
FC(F)(F)Oc1cccc(Nc2[nH]nc3c2Cc2cc(Br)ccc2-3)c1 [Compound 154] ... no (0)
COc1ccc(Nc2[nH]nc3c2Cc2cc(OC)c(OC)cc2-3)cc1Cl [Compound 277] ... yes (1)
CCOC(=O)CCNC(=O)n1nc2c(c1Nc1ccccc1)Cc1cc(OC)c(OC)cc1-2 [Compound 411] ... no (0)
Clc1cccc(Nc2[nH]nc3c2Cc2sccc2-3)c1 [Compound 403] ... yes (1)
COc1cc2c(cc1OC)-c1c(c(Nc3cccc(F)c3)nn1C(=O)COC(C)=O)C2 [Compound 467] ... yes (1)
COc1cc2c(cc1OCCCO)Cc1c-2n[nH]c1Nc1ccc(F)c(Cl)c1 [Compound 267] ... yes (1)

-- ask Exam item: decide whether the reported inhibition at 10 µM for Fc1ccc2c(c1)Cc1c-2n[nH]c1Nc1ccc2[nH]ccc2c1 [Compound 290] is at least 80%.
-- reply yes (1)

-- ask Exam item: decide whether the reported inhibition at 10 µM for COc1cccc2c1Cc1c-2n[nH]c1Nc1cccc(C(F)(F)F)c1 [Compound 150] is at least 80%.
-- reply yes (1)

-- ask Exam item: decide whether the reported inhibition at 10 µM for COc1cc2c(cc1OC)C(C(C)C)c1c-2n[nH]c1Nc1cccc(Cl)c1 (stereo not drawn) [Compound 540] is at least 80%.
-- reply no (0)

-- ask Exam item: decide whether the reported inhibition at 10 µM for COc1cc2c(cc1OC)-c1n[nH]c(Nc3ccccc3C(C)C)c1C2 [Compound 57] is at least 80%.
-- reply no (0)

-- ask Exam item: decide whether the reported inhibition at 10 µM for COC(=O)c1cccc(Nc2[nH]nc3c2Cc2cc(OC)c(OC)cc2-3)c1 [Compound 11] is at least 80%.
-- reply yes (1)

-- ask Exam item: decide whether the reported inhibition at 10 µM for COc1cc(Nc2[nH]nc3c2Cc2cc(F)ccc2-3)cc(OC)c1 [Compound 204] is at least 80%.
-- reply yes (1)

-- ask Exam item: decide whether the reported inhibition at 10 µM for COc1cccc(Nc2[nH]nc3c2Cc2cc(N4CCN(C)CC4)ccc2-3)c1 [Compound 123] is at least 80%.
-- reply yes (1)

-- ask Exam item: decide whether the reported inhibition at 10 µM for COc1cc2c(cc1OCC(O)CN1CCCC1)Cc1c-2n[nH]c1NCc1ccccc1Cl (stereo not drawn) [Compound 396] is at least 80%.
-- reply yes (1)

The measured values listed here are drawn from patent US7196110B2.
